Cited source for all entries: ChEMBL document CHEMBL2074542

Molecular target: Solute carrier family 15 member 2 (Homo sapiens, UniProt Q16348)
Sequence (Q16348 whole entry): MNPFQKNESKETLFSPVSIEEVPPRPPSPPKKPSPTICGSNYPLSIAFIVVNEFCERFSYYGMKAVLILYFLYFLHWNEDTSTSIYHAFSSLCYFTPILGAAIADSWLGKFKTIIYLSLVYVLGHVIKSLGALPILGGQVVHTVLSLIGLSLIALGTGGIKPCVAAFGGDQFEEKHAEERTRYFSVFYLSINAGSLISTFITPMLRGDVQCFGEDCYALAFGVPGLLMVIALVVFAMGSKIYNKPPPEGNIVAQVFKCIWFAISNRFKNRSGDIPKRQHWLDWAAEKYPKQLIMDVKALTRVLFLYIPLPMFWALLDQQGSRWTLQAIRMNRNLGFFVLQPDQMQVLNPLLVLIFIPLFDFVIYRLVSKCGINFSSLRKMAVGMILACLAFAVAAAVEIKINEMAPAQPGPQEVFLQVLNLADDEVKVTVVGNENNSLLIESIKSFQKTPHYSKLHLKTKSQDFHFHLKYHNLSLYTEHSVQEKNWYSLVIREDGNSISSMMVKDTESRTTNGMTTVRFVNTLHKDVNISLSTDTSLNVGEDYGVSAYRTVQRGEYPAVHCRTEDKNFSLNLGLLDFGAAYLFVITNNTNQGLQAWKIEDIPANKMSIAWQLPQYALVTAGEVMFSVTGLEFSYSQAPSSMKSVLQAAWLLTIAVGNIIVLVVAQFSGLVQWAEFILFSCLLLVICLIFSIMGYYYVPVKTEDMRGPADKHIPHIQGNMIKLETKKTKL
Test: TP_TRANSPORTER: inhibition of Gly-Sar uptake (Gly-Sar: 50 uM) in PEPT2-expressing HeLa cells
Overview of reported pIC50 across a group of compounds:
Lab note: report pIC50 as minus log10 of the concentration in molar units, number only.

CC1(C)S[C@@H]2[C@H](NC(=O)C3(N)CCCCC3)C(=O)N2[C@H]1C(=O)O 3.21

Specify the recorded pIC50 for CC1=C(C(=O)O)N2C(=O)[C@@H](NC(=O)[C@H](N)c3ccc(O)cc3)[C@H]2SC1 , system: Solute carrier family 15 member 2 (Homo sapiens, UniProt Q16348).
4.18

====

Molecular target: Solute carrier family 15 member 2 (Homo sapiens, UniProt Q16348)
Assay: TP_TRANSPORTER: inhibition of Gly-Sar uptake in SKPT cells
Assay type: functional, cell-based
OBSERVABLE: pKi
Lab note: report pKi as minus log10 of the concentration in molar units, number only.

Answered cases to consult:
MOLECULE	VALUE
CC1=C(C(=O)O)N2C(=O)[C@@H](NC(=O)[C@H](N)c3ccc(O)cc3)[C@H]2SC1	5.55
CC1=C(C(=O)O)N2C(=O)[C@@H](NC(=O)[C@H](N)c3ccccc3)[C@H]2SC1 [CEPHALEXIN ANHYDROUS]	4.17

// Input: CC1(C)S[C@@H]2[C@H](NC(=O)C3(N)CCCCC3)C(=O)N2[C@H]1C(=O)O . Output its pKi only.
4.41
